Read-out: Plasminogen Activator Inhibitor-1 (PAI1), SERPINE1 (gene 5054)
Assay: BSK_BF4T_PAI1: BioMAP Diversity Plus: BF4T Assay for Plasminogen Activator Inhibitor-1 (PAI1) Biomarker Activity (AID 2284273)
Settings: primary human bronchial epithelial cells with fibroblasts
The source made the active and inactive calls. Rule for the calls: active = hit-call score of the fitted dose curve at least 0.9, where 1 is the maximum; inactive = score below 0.9.
Outcome field: choose from active, inactive

Query: I'd appreciate the recorded outcome for `NCC(F)(F)C(F)(F)C(F)(F)C(F)(F)C(F)(F)C(F)(F)C(F)(F)F` from this test.
Response: inactive

Query: Proceed to `FC(F)(I)C(F)(F)C(F)(F)C(F)(F)C(F)(F)C(F)(F)I`
Response: active

Query: Proceed to `OCCC(F)(F)C(F)(F)C(F)(F)C(F)(F)C(F)(F)C(F)(F)F`
Response: inactive

Query: Proceed to `C=C(C)C(=O)OCCC(F)(F)C(F)(F)C(F)(F)C(F)(F)C(F)(F)C(F)(F)F`
Response: inactive

---

Read-out: X-box binding protein 1 (XBP1), XBP1 (gene 7494)
Assay: LTEA_HepaRG_XBP1: Life Technologies and Expression Analysis (LTEA) Assay for X-box binding protein 1 (XBP1) using HepaRG (AID 2283540)
Conditions: mRNA level, 48 h; actives raise or lower the signal
The source made the active and inactive calls. How the source made its calls: active means hit-call score of the fitted dose curve at least 0.9, where 1 is the maximum; inactive means score below 0.9.
Outcome field: choose from Y (active), N (inactive)

Look over these answered cases.
Query: I'd appreciate the recorded outcome for `CCCCCCCCCCCCCCCS(=O)(=O)Oc1ccccc1` from this test.
Response: N

Query: Proceed to OC1CCC(C2CCCCC2)CC1 (stereo unspecified)
Response: N

Query: Proceed to `Cc1cc(CCN2CCN(c3nsc4ccccc34)CC2)cc2c1NC(=O)CC2(C)C`
Response: N

Query: Proceed to `CCOC(=O)CC(O)(CC(=O)OCC)C(=O)OCC`
Response: N

Query: Proceed to `CCCCCCCC(=O)O`
Response: N

Continuing:
Query: I'd appreciate the recorded outcome for `c1ccc2cc3c(ccc4ccccc43)cc2c1` from this test.
Response: Y

Query: Proceed to `CCCOC(=O)c1ccc(O)cc1`
Response: N

Query: Proceed to CC(O)CO (stereo unspecified)
Response: N

Query: Proceed to `CC#C[C@]1(O)CC[C@H]2[C@@H]3CCC4=CC(=O)CCC4=C3[C@@H](c3ccc(N(C)C)cc3)C[C@@]21C`
Response: Y

Query: Proceed to `CCCCOCCO`
Response: N

Query: Proceed to `OC1CCCCC1`
Response: N

---

Read-out: Interleukin-8 (IL8), CXCL8 (gene 3576)
Experiment: BSK_3C_IL8: BioMAP Diversity Plus: 3C Assay for Interleukin-8 (IL8) Biomarker Activity (AID 2283020)
Conditions: primary human endothelial cells (HUVEC); actives raise or lower the signal
Activity calls are given as the source filed them. Rule for the calls: active = hit-call score of the fitted dose curve at least 0.9, where 1 is the maximum; inactive = score below 0.9.
Outcome field: choose from active, inactive

Query: I'd appreciate the recorded outcome for `CCCCCCCC(=O)O` from this test.
Response: inactive

Query: Proceed to `ClC1=C(Cl)C(Cl)(Cl)C(Cl)=C1Cl`
Response: active

Query: Proceed to `CC(=O)CC(C)(C)O`
Response: inactive

Query: Proceed to COCC(C)O (centres undefined)
Response: inactive

Query: Proceed to `Oc1cccc(O)c1`
Response: inactive

Query: Proceed to `COc1ccc([N+](=O)[O-])cc1N`
Response: inactive

Query: Proceed to `CCCCCCCCCCCCCC[N+](C)(C)C`
Response: active

Query: Proceed to `NCC(F)(F)C(F)(F)C(F)(F)C(F)(F)C(F)(F)C(F)(F)C(F)(F)F`
Response: inactive

Query: Proceed to `c1ccc2c(c1)ccc1ccccc12`
Response: inactive

Query: Proceed to `CC(C)(C)c1ccc(O)c(C(C)(C)C)c1`
Response: active

Continuing:
Query: I'd appreciate the recorded outcome for `CC[C@H](C)[C@@H](C(=O)O)n1sc2ccccc2c1=O` from this test.
Response: inactive

Query: Proceed to `CC(C)(C)CC(C)(C)c1ccc(O)c(-n2nc3ccccc3n2)c1`
Response: inactive

Query: Proceed to `CC(C)CCCCCCOC(=O)CCCCC(=O)OCCCCCCC(C)C`
Response: inactive

Query: Proceed to CCCCC(CC)COC(=O)CCCCC(=O)OCC(CC)CCCC (centres undefined)
Response: inactive
